target: stromelysin-1 (MMP-3) (Homo sapiens)
Sequence (P08254 100-477): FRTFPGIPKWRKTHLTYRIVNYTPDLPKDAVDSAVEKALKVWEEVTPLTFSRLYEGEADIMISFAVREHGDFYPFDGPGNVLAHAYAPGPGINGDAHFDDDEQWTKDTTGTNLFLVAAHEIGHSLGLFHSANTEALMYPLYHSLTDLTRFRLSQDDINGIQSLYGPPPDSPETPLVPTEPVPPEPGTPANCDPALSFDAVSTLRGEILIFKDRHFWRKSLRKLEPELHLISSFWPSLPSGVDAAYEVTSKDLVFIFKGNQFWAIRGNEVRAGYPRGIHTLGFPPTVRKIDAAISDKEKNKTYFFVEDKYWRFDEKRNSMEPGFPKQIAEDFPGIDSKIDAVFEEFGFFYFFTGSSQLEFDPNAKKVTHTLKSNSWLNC
pKi: −log10 of the molar value.
measuredQuantity: pKi

# compound, pKi
rows = [
    ("CCC[C@@H]([C@@H](CC(C)Cc1ccccc1)C(=O)N[C@H](C(=O)Nc1nccs1)C(C)(C)C)N(O)C=O (stereo partly shown)", "< 6.00"),
]

List the reported pKi of each compound below.
1. C[C@@H]([C@@H](CC1CCC(c2ccccc2)CC1)C(=O)N[C@H](C(=O)Nc1nccs1)C(C)(C)C)N(O)C=O (stereo partly shown)
2. CC(C)(C)[C@H](NC(=O)[C@H](CCCc1ccccc1)[C@H](CCC(F)(F)F)N(O)C=O)C(=O)Nc1nccs1
3. CCC[C@@H]([C@@H](CCCc1ccoc1)C(=O)N[C@H](C(=O)Nc1nccs1)C(C)(C)C)N(O)C=O
4. CCC[C@@H]([C@@H](CCCc1ccoc1)C(=O)N[C@@H](CCCCNC(=O)OCc1ccccc1)C(=O)Nc1nccs1)N(O)C=O
5. CCC[C@@H]([C@@H](CC(C)Cc1ccccc1)C(=O)N[C@H](C(=O)Nc1nccs1)C(C)(C)SCCNC(=O)OCc1ccccc1)N(O)C=O (stereo partly shown)
6. C[C@@H]([C@@H](CCCc1ccccc1)C(=O)N[C@H](C(=O)Nc1cccnc1)C(C)(C)C)N(O)C=O

Result:
1. 6.30 to 7.00
2. 6.30 to 7.00
3. > 7.00
4. > 7.00
5. < 6.00
6. > 7.00

Record pKi per entry; entries follow.
1. CCC[C@@H]([C@@H](CC(C)Cc1ccccc1)C(=O)N[C@@H](CCCCNC(=O)OCc1ccccc1)C(=O)Nc1nccs1)N(O)C=O (stereo partly shown)
2. CCC[C@@H]([C@H](COCc1ccccc1)C(=O)N[C@@H](CCCCNC(=O)OCc1ccccc1)C(=O)Nc1nccs1)N(O)C=O
3. C[C@@H]([C@@H](CCCc1ccc(Cl)cc1)C(=O)N[C@H](C(=O)Nc1cccnc1)C(C)(C)C)N(O)C=O

Result:
< 6.00
6.30 to 7.00
> 7.00
